assay.name: Biodistribution of [111In]In-radiocomplexes in healthy mice
Assay type: in vivo
experimental.context: 1 h p.i.
metric: Biodistribution: Muscle (% I.D./g)

Completed entries (count: 2):
1. O=C([O-])CN1CCN(CC(=O)[O-])CCN(CC(=O)NCCOCCOCCOCCOCCOCCOCCOCCOCCOCCOCCOCCNC(=O)CCCC(=O)NCc2ccc(-c3nncnn3)cc2)CCN(CC(=O)[O-])CC1.[111In+3] [[111In]In-DOTA-PEG-Tz]; 0.10
2. O=C([O-])CN1CCN(CC(=O)[O-])CCN(C(CCC(=O)NCCOCCOCCOCCOCCOCCOCCOCCOCCOCCOCCOCCNC(=O)CCCC(=O)NCc2ccc(-c3nncnn3)cc2)C(=O)[O-])CCN(CC(=O)[O-])CC1.[111In+3] (stereo not shown) [[111In]In-DOTAGA-PEG-Tz]; 0.2

I. O=C([O-])CN1CCN(CC(=O)[O-])CCN(CC(=O)NCc2ccc(-c3nncnn3)cc2)CCN(CC(=O)[O-])CC1.[111In+3] [[111In]In-DOTA-Tz]
II. O=C([O-])CN1CCN(CC(=O)[O-])CCN(C(CCC(=O)NCc2ccc(-c3nncnn3)cc2)C(=O)[O-])CCN(CC(=O)[O-])CC1.[111In+3] (stereo not shown) [[111In]In-DOTAGA-Tz]
Prompt: Sort I and II by Biodistribution: Muscle descending and give the first. Answer by stating the label of the chosen item.
Completion: II
